Would you mind telling me the reported TGI of each entry?
- System: T-47D breast
- method.description: NCI tumour cell line growth inhibition, 48 h
Numbers only, in µM.

compound	test.readout	unit.abbrev	experimental.value
CCCCCCN(CCCCCC)CC(O)c1cccc2ccc(Cl)cc12 (stereo not drawn)	TGI	µM	4.46

Then this compound:
Q) // lookup TGI for CCN(CC)CCOc1ccc(C2=C(c3ccccc3)CCc3cc(OC)ccc32)cc1
A) 6.86

---

Would you mind telling me the reported GI50 of each entry?
- Test system: LOX IMVI melanoma
- method.description: NCI tumour cell line growth inhibition, 48 h

compound	experimental.value
CC1(C)CC2(C)OC2C2(C1)N=NC(=Nc1ccccc1)O2 (stereo not given)	1060 nM

Could you tell me GI50 for each of these compounds? They are listed below.
1. CCN(CC)CCOc1ccc(C2=C(c3ccccc3)CCc3cc(OC)ccc32)cc1
2. N#Cc1ccc(N2Cc3cc(Cl)ccc3OC3=C2C(=O)N(Cc2ccccc2)C3=O)cc1
3. CC(C)(C)c1ccc(S(=O)(=O)N[C@H]2CC[C@H]3[C@@H]4CCc5cc(O)ccc5[C@H]4CC[C@]23C)cc1
4. COC(=O)C1=C(O)C(C(=O)OC)[C@@]2(O)[C@@H](C(=O)OC)C(c3ccc(OC(=O)C(CC(C)C)NC(C)=O)cc3)C[C@@H]1[C@@H]2C(=O)OC (stereo not given in full)

A)
1. 1750 nM
2. 1470 nM
3. 1770 nM
4. 20600 nM

The origin of these recorded values is PubChem BioAssay (NCI).
